Each record here notes measured Time.
# Assay info: Toxicity in Kunming mouse model assessed as conditioned place preference time at 10 micromol/kg, sc
# Experimental conditions: in vivo, dose 10 µmol/kg
Reported property: Time (s)

Molecule	Reported property	Assay result
Cc1cc(O)cc(C)c1C[C@H](N)C(=O)N[C@H]1CSSC[C@@H](C(=O)NCC(=O)N[C@H](CCCNC(=N)N)C(=O)N[C@H](CCCNC(=N)N)C(=O)O)NC(=O)[C@H](Cc2ccc(Cl)cc2)NC(=O)[C@H](Cc2c[nH]c3ccccc23)NC1=O	Time	453
NC(=O)[C@H](Cc1ccccc1)NC(=O)[C@H](Cc1c[nH]c2ccccc12)NC(=O)[C@@H]1CCCN1C(=O)[C@@H](N)Cc1ccc(O)cc1 [ENDOMORPHIN-1]	Time	451
NC(=O)[C@H](Cc1ccccc1)NC(=O)[C@H](Cc1ccccc1)NC(=O)[C@@H]1CCCN1C(=O)[C@@H](N)Cc1ccc(O)cc1 [ENDOMORPHIN 2]	Time	445
CN1CC[C@]23c4c5ccc(O)c4O[C@H]2[C@@H](O)C=C[C@H]3[C@H]1C5 [MORPHINE]	Time	447
Cc1cc(O)cc(C)c1C[C@H](N)C(=O)N[C@H]1CSSC[C@@H](C(=O)NCC(=O)N[C@H](CCCNC(=N)N)C(=O)N[C@H](CCCNC(=N)N)C(=O)O)NC(=O)[C@H](Cc2ccc(Cl)cc2)NC(=O)[C@H](Cc2ccccc2)NC1=O	Time	453
